Target: gH/gL/UL128/UL130/UL131A pentamer complex (PC) of HCMV strain TB40/E virus (human cytomegalovirus strain TB40/E)
Assay: cell-based or functional assay
quantity_kind: IC50, inhibition of TB40/E cell-to-cell spread in ARPE-19 (µg/mL)
Just the number in µg/mL, nothing appended.

INSERT INTO assay_data (binder, observed) VALUES
  ('1B2 (antibody, V domains shown, also called NAb 1B2) VH: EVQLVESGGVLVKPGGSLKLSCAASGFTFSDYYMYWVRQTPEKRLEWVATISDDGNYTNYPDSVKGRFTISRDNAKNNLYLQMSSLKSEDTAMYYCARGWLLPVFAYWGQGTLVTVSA VL: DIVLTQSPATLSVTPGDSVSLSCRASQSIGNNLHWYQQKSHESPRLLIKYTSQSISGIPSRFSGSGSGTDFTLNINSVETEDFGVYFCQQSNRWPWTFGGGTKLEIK', 1);

Ask: Give the measured IC50, inhibition of TB40/E cell-to-cell spread in ARPE-19 of 13B5 (antibody, V domains shown, also called NAb 13B5; 1365) VH: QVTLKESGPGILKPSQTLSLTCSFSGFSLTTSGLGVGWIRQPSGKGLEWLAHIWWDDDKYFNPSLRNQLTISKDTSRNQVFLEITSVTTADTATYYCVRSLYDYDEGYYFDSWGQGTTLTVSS VL: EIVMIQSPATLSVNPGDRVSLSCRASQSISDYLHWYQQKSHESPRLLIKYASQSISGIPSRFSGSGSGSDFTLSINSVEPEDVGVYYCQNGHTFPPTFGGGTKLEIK .
Result: 22

Ask: Give the measured IC50, inhibition of TB40/E cell-to-cell spread in ARPE-19 of 21F6 (antibody, V domains shown, also called NAb 21F6) VH: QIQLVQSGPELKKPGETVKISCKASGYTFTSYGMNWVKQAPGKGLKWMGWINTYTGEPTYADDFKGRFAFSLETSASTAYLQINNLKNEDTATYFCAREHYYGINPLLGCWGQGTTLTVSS VL: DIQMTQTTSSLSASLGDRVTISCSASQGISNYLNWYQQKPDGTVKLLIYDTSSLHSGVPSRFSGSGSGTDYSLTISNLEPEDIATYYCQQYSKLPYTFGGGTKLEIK .
Result: 18

Taken from patent US20180230200A1.
